# target-system: T1, HLA A*0101 presenting HCMV pp65 peptide […] on cells (human HLA-A*01:01 and B2M; HCMV pp65 …, strain)
# T1 construct: copies: + +
# assay-details: flow cytometry on cells
# experimental-conditions: one partner purified
measured-property: binding result

- Fab F3 tetramer (Fab, V domains shown, copies: 4 + 4) VH: QVQLVQSGAEVKKPGASVKVSCKASGYTFTSYYMHWVRQAPGQGLEWMGIINPSGGSTSYAQKFQGRVTMTRDTSTSTVYMELSSLRSEDTAVYYCASGITGAHDYWGQGTLVTVSS VL: QSVVTQPPSVSGAPGQRVTISCTGSSSNIGAGYDVHWYQQLPGTAPKLLIYENSIRPSGVPDRFSGSKSGTAASLAITGLQAEDEAEYYCQSYDNSLSGPNWVFGGGTKLTVL: binds
- biotinylated Fab F3 (Fab, V domains shown, source: E. coli TG1, biotinylated in vivo, purified (IMAC, Talon beads)) VH: QVQLVQSGAEVKKPGASVKVSCKASGYTFTSYYMHWVRQAPGQGLEWMGIINPSGGSTSYAQKFQGRVTMTRDTSTSTVYMELSSLRSEDTAVYYCASGITGAHDYWGQGTLVTVSS VL: QSVVTQPPSVSGAPGQRVTISCTGSSSNIGAGYDVHWYQQLPGTAPKLLIYENSIRPSGVPDRFSGSKSGTAASLAITGLQAEDEAEYYCQSYDNSLSGPNWVFGGGTKLTVL: binds
- Fab A6 tetramer (Fab, V domains shown, copies: 4 + 4) VH: EVQLVQSGAEVKKPGASVKVSCKASGYTFTSYYMHWVRQSPGQGLEWMGIINPSGGSTSYAQKFQGRVTMTRDTSTSTVYMELSSLRSEDTAVYYCARNGYCSSTSCYDAFDIWGQGTMVTVSS VL: QSALTQPASVSGSPGQSITISCTGTSSDVGGYNYVSWYQQHPGKAPKVLIYDVNQRISGVPDRFSGSKSGNTASLTISGLQAEDEADYYCCSYAGSSSWVFGGGTRLTVL: binds

Ref: paper PMC7347513
